biological target: human C-terminal DNMT3A (623-908a.a.) (Homo sapiens); construct: The human C-terminal DNMT3A (623-908a.a.); made in house; experiment: hDNMT3A assay (restriction-based fluorescence assay); format: biochemical; settings: read-out: hDNMT 3A inhibition, Inhibition (%) 32 μM
Sequence (Q9Y6K1 627-912 limits assumed): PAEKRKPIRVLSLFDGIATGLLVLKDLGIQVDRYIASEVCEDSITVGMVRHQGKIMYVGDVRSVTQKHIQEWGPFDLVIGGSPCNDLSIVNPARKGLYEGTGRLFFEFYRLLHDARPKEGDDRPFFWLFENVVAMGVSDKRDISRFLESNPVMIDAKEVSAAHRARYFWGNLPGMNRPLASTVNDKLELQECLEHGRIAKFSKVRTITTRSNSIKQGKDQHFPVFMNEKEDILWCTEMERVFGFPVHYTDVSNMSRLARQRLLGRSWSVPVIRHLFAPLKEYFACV
measured.property: inhibition at 32 µM (%)

Please review the entries below; each comes with its answer.
smiles.record | system | inhibition at 32 µM (%)
COc1ccc2cc1Oc1ccc(cc1)C[C@H]1c3c(cc(OC)c4c3Oc3cc5c(cc3O4)CCN(C)[C@H]5C2)CCN1S(C)(=O)=O | human C-terminal DNMT3A (623-908a.a.) (Homo sapiens) | 45
COc1ccc2cc1Oc1ccc(cc1)C[C@H]1c3c(cc(OC)c4c3Oc3cc5c(cc3O4)CCN(CC#N)[C@H]5C2)CCN1C | human C-terminal DNMT3A (623-908a.a.) (Homo sapiens) | 66
CCN(CC)CCCNC(=O)N1CCc2cc3c4cc2[C@@H]1Cc1ccc(OC)c(c1)Oc1ccc(cc1)C[C@H]1c2c(cc(OC)c(c2O4)O3)CCN1C(=O)NCCCN(CC)CC | human C-terminal DNMT3A (623-908a.a.) (Homo sapiens) | 98
CNC(=O)N1CCc2cc3c4cc2[C@@H]1Cc1ccc(OC)c(c1)Oc1ccc(cc1)C[C@H]1c2c(cc(OC)c(c2O4)O3)CCN1C(=O)NC | human C-terminal DNMT3A (623-908a.a.) (Homo sapiens) | 49

[1] CNC(=O)N1CCc2cc(OC)c3c4c2[C@@H]1Cc1ccc(cc1)Oc1cc(ccc1OC)C[C@@H]1NCCc2cc(c(cc21)O4)O3
[2] COc1cc2c3c4c1Oc1cc5c(cc1O4)[C@H](Cc1ccc(OS(=O)(=O)C(F)(F)F)c(c1)Oc1ccc(cc1)C[C@@H]3N(C)CC2)N(C)CC5
query: Smaller inhibition at 32 µM value? Options are 1 and 2 Bench note: the answer is the label of the chosen record.
result: 2

---

target: His-DNMT1 (182 kDa, human) (Homo sapiens); construct: His; made in house; assay: hDNMT1 assay ([methyl-3H] SAM Flashplate); format: biochemical; conditions: read-out: hDNMT 1 inhibition, Inhibition (%) 32 μM
Sequence (P26358 whole entry): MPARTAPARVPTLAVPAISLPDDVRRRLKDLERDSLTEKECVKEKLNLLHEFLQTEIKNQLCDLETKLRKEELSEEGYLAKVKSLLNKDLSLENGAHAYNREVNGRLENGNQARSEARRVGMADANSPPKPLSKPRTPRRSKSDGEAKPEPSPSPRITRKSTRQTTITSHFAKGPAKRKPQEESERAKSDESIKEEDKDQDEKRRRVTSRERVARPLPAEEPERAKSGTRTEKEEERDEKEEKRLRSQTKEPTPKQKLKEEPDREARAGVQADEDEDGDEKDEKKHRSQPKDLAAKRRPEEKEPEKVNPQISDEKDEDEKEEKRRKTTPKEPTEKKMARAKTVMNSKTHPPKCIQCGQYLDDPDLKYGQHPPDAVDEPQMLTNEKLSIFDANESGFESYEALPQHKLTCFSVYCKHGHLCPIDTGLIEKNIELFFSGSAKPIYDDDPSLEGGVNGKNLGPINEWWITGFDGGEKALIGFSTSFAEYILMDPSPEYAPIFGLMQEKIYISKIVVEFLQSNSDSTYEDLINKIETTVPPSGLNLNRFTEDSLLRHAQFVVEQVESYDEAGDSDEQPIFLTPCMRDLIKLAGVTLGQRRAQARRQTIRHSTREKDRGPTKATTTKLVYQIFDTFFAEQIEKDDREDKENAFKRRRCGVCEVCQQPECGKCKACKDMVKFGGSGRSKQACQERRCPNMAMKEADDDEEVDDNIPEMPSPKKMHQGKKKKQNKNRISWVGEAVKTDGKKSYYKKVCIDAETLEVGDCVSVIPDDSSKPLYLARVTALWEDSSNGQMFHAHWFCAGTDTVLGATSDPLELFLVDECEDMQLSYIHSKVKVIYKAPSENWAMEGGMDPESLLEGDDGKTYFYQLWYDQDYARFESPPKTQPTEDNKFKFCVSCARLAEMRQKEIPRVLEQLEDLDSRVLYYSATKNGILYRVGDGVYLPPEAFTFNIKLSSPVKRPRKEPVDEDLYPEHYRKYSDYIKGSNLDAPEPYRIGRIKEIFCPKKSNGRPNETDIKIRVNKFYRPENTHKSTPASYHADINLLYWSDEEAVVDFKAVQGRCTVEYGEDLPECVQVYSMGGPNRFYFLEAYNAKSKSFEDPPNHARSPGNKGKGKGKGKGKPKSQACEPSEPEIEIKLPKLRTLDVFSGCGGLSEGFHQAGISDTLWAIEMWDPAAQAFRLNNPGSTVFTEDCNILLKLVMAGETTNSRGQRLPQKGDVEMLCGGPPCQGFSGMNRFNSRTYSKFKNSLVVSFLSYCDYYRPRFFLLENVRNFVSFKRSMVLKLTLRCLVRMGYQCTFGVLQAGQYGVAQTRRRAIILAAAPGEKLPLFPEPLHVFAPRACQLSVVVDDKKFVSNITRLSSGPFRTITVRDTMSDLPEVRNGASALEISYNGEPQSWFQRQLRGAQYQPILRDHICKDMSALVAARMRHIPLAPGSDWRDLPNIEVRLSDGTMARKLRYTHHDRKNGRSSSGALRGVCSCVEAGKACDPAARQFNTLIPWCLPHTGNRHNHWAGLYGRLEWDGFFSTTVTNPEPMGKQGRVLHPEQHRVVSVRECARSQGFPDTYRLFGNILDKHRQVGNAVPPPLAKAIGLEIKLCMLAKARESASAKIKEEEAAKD
inhibition at 32 µM values by entry
Lab book: enter the figure in %, no units written.

Sample records with inhibition at 32 µM:
smiles.record | unit | inhibition at 32 µM
CNC(=O)N1CCc2cc(OC)c3c4c2[C@@H]1Cc1ccc(cc1)Oc1cc(ccc1OC)C[C@H]1c2cc(c(cc2CCN1C)O3)O4 | % | 15
CCN(CC)CCCNC(=O)N1CCc2cc3c4cc2[C@@H]1Cc1ccc(OC)c(c1)Oc1ccc(cc1)C[C@H]1c2c(cc(OC)c(c2O4)O3)CCN1C(=O)NCCCN(CC)CC | % | 98
CCN(CC)CCCNC(=S)N1CCc2cc3c4cc2[C@@H]1Cc1ccc(OC)c(c1)Oc1ccc(cc1)C[C@H]1c2c(cc(OC)c(c2O4)O3)CCN1C | % | 100

query: Name the reported inhibition at 32 µM value associated with the compound `CCN(CC)CCCNC(=S)N1CCc2cc3c4cc2[C@@H]1Cc1ccc(OC)c(c1)Oc1ccc(cc1)C[C@H]1c2c(cc(OC)c(c2O4)O3)CCN1C(=S)NCCCN(CC)CC`
result: 99
